System: SW1990
Test: Antiproliferative activity against human SW1990 cells assessed as inhibition of cell growth incubated for 48 hrs by CCK-8 assay
Assay type: functional, cell-based
Settings: SW1990, 48 h

molecularString: O=C(/C=C/c1cn(S(=O)(=O)c2ccc([N+](=O)[O-])cc2)c2ccc(N3CCOCC3)cc12)c1cccnc1
IC50 [nM]: 927

====

This listing pairs compounds with measured IC50.
Tested on: LoVo
Experiment: Antiproliferative activity against human LoVo cells assessed as inhibition of cell growth incubated for 48 hrs by CCK-8 assay
Format: functional, cell-based

molecularString: O=C(/C=C/c1cn(S(=O)(=O)c2ccc([N+](=O)[O-])cc2)c2cc(N3CCOCC3)ccc12)c1cccnc1
IC50 / nM: 792
--
molecularString: O=C(/C=C/c1cn(S(=O)(=O)c2ccc([N+](=O)[O-])cc2)c2ccc(N3CCOCC3)cc12)c1ccccn1
IC50 / nM: 740
--
molecularString: O=C(/C=C/c1cn(S(=O)(=O)c2ccc([N+](=O)[O-])cc2)c2ccc(N3CCCCC3)cc12)c1cccnc1
IC50 / nM: 765
--
molecularString: Cc1ccc(C(=O)/C=C/c2cn(S(=O)(=O)c3ccc([N+](=O)[O-])cc3)c3ccc(N4CCOCC4)cc23)c(C)n1
IC50 / nM: 221
